- Procedure Text: NCI Yeast Anticancer Drug Screen. Data for the sgs1 mgt1 strain (AID 161);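 note: 0% = growth of cultures given vehicle only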
- Assay Conditions: S. cerevisiae sgs1 mgt1 strain, at 50.0 µM, active compounds read high
- Method: Growth inhibition of yeast strains with defined genetic alterations is measured as a screen for potential anti-cancer activity. Selected strains with alterations in DNA damage repair or cell cycle control were exposed to compounds and growth inhibition was measured relative to vehicle treated controls. The strain used in this assay is sgs1 mgt1
About 79,000 compounds went through this panel and 15% of them were active in at least one assay; those are over-represented in the sample as a whole.
Measured Quantity: growth inhibition (%)
Return type: number; implicit unit %.

# input Supply reported growth inhibition belonging to this compound: `CN(/N=C(\C(=O)O)c1ccccc1)C1=NCCN1`
# output -4.65

# input Kindly indicate its recorded growth inhibition. Item: C=C(C)C(=O)OC1C(C(C)CCCO)=C(CO)CC2OC(=O)C(=C)C21 (configuration not stated)
# output -14.5

# input Check the records and state growth inhibition for CCC1C(=O)OCc2c1cc1n(c2=O)C(CC)c2c-1nc1ccccc1c2Cl (configuration not stated)
# output 8.15

# input Identify measured growth inhibition associated with `N#CCCN1CCCSC1=S`
# output 4.2

# input Please give measured growth inhibition of the following entry: CC(=O)Nc1ccc(C(=O)NN2C(=O)C(Cl)/C2=C/c2ccco2)cc1 (configuration not stated)
# output -28.8

# input Tell us which growth inhibition value is on record for O/N=C1/C2C=CC(C2)C1Cl (configuration not stated)
# output 11.7

# input // fetch growth inhibition given entry CCN(CC)C1=CC(=O)OC1OC (configuration not stated)
# output 2

Reference source: PubChem BioAssay (NCI)
